Target or system: PrgB246-558 adhesin domain (Enterococcus faecalis (plasmid pCF10), UniProt Q04112 246-558)
Test description: ITC
Measured attribute: pKd
Formally, pKd is defined as -log10 of the concentration c, with c in mol/L.

[in] Given the entry 19-bp dsDNA (dsDNA) DNA 1: GGGGGCGGGGCGGGCGGCG DNA 2: CGCCGCCCGCCCCGCCCCC , report its measured pKd.
[out] 4.34
